Values were extracted from the supplement of paper PMC9112550.

# Tested on: Escherichia coli TOP10
# ASSAY OVERVIEW: shrunken log2 fold change of peptide-encoding DNA abundance (4.5 h post-induction vs induction); higher = less antimicrobial activity (less host growth inhibition)
# CONDITIONS USED: time post-induction: 4.5 h; library: site-saturation at positions 5, 18, 19, 20
Please provide measured shrunken log2 fold change for the entries that follow.
Answers are plain numbers.

Worked cases, shrunken log2 fold change given:
RRIRVRPPRLPRPRPRPSCFPRP : -0.264
RRIRVRPPRLPRPRPRPHLSPRP : -0.301

State recorded shrunken log2 fold change for all listed sequences.
1. RRIRYRPPRLPRPRPRPRADPRP
2. RRIRLRPPRLPRPRPRPQSSPRP
3. RRIRHRPPRLPRPRPRPEAKPRP
4. RRIRGRPPRLPRPRPRPSVCPRP
5. RRIRTRPPRLPRPRPRPSVGPRP
6. RRIRGRPPRLPRPRPRPDDTPRP
7. RRIRLRPPRLPRPRPRPYRFPRP

Response:
[0.0349, -0.419, -0.0228, 0.159, -0.055, 0.944, 0.0498]

====

# System: Escherichia coli TOP10
# ASSAY OVERVIEW: shrunken log2 fold change of peptide-encoding DNA abundance (4.5 h post-induction vs induction); higher = less antimicrobial activity (less host growth inhibition)
# CONDITIONS USED: time post-induction: 4.5 h; library: site-saturation at positions 5, 18, 19, 20
Category key, based on recorded shrunken log2 fold change: Low = under -0.1, Mid = from -0.1 up to 0.05, High = 0.05 and over

Use these answered entries as a reference point.
RRIRQRPPRLPRPRPRPTVIPRP : Mid
RRIRTRPPRLPRPRPRPSIEPRP : Low
RRIRKRPPRLPRPRPRPKLEPRP : Mid
RRIRPRPPRLPRPRPRPPRVPRP : High

Request: Hello team, could you let me know which band the following sequence falls into: RRIRNRPPRLPRPRPRPKQFPRP
Response: Low

Request: Hello team, could you let me know which band the following sequence falls into: RRIRYRPPRLPRPRPRPVRMPRP
Response: Low

====

# Tested on: Escherichia coli TOP10
# ASSAY OVERVIEW: shrunken log2 fold change of peptide-encoding DNA abundance (4.5 h post-induction vs induction); higher = less antimicrobial activity (less host growth inhibition)
# CONDITIONS USED: time post-induction: 4.5 h; library: site-saturation at positions 5, 18, 19, 20
Binary classification by shrunken log2 fold change, with 0.05 as an inclusive lower bound for satisfied; all other cases are not satisfied.

RRIRNRPPRLPRPRPRPESVPRP : not satisfied
RRIRARPPRLPRPRPRPWFYPRP : satisfied
RRIRDRPPRLPRPRPRPSEFPRP : not satisfied
RRIRRRPPRLPRPRPRPWVSPRP : not satisfied
RRIRWRPPRLPRPRPRPERQPRP : satisfied

Read the next record carefully.
Request: Could you verify whether the entry RRIRRRPPRLPRPRPRPVFKPRP shows shrunken log2 fold change of no less than 0.05?
Response: not satisfied

====

# Tested on: Escherichia coli TOP10
# ASSAY OVERVIEW: shrunken log2 fold change of peptide-encoding DNA abundance (4.5 h post-induction vs induction); higher = less antimicrobial activity (less host growth inhibition)
# CONDITIONS USED: time post-induction: 4.5 h; library: site-saturation at positions 5, 18, 19, 20
Binary classification by shrunken log2 fold change, with 0.04 as an inclusive lower bound for fulfilled; all other cases are not fulfilled.

Request: Could you verify whether the entry RRIRTRPPRLPRPRPRPEFIPRP shows shrunken log2 fold change of no less than 0.04?
Response: not fulfilled

Request: Could you verify whether the entry RRIRKRPPRLPRPRPRPYRSPRP shows shrunken log2 fold change of no less than 0.04?
Response: fulfilled

Request: Could you verify whether the entry RRIRHRPPRLPRPRPRPVAWPRP shows shrunken log2 fold change of no less than 0.04?
Response: fulfilled

====

# Test system: Escherichia coli TOP10
# ASSAY OVERVIEW: shrunken log2 fold change of peptide-encoding DNA abundance (4.5 h post-induction vs induction); higher = less antimicrobial activity (less host growth inhibition)
# CONDITIONS USED: time post-induction: 4.5 h; library: site-saturation at positions 5, 18, 19, 20
Binary classification by shrunken log2 fold change, with -0.1 as an inclusive lower bound for 1 (yes); all other cases are 0 (no).

RRIRARPPRLPRPRPRPHEDPRP : 1 (yes)
RRIRQRPPRLPRPRPRPENWPRP : 1 (yes)
RRIRHRPPRLPRPRPRPLQQPRP : 1 (yes)
RRIRTRPPRLPRPRPRPRRGPRP : 1 (yes)
RRIRERPPRLPRPRPRPQDLPRP : 0 (no)
RRIRYRPPRLPRPRPRPGDMPRP : 0 (no)

Request: Could you verify whether the entry RRIRMRPPRLPRPRPRPDYRPRP shows shrunken log2 fold change of no less than -0.1?
Response: 0 (no)

Request: Could you verify whether the entry RRIRRRPPRLPRPRPRPHCLPRP shows shrunken log2 fold change of no less than -0.1?
Response: 0 (no)

Request: Could you verify whether the entry RRIRARPPRLPRPRPRPSMRPRP shows shrunken log2 fold change of no less than -0.1?
Response: 1 (yes)

====

# Test system: Escherichia coli TOP10
# ASSAY OVERVIEW: shrunken log2 fold change of peptide-encoding DNA abundance (4.5 h post-induction vs induction); higher = less antimicrobial activity (less host growth inhibition)
# CONDITIONS USED: time post-induction: 4.5 h; library: site-saturation at positions 5, 18, 19, 20
READOUT TYPE: shrunken log2 fold change
Answers are plain numbers.

State recorded shrunken log2 fold change for all listed sequences.
1. RRIRERPPRLPRPRPRPIDMPRP
2. RRIRHRPPRLPRPRPRPCGRPRP
3. RRIRDRPPRLPRPRPRPTTSPRP

Response:
[-0.123, -0.0197, 0.335]

State recorded shrunken log2 fold change for all listed sequences.
1. RRIRIRPPRLPRPRPRPSFYPRP
2. RRIRLRPPRLPRPRPRPFMEPRP
3. RRIRARPPRLPRPRPRPPTKPRP

Response:
-0.776
-0.35
0.486

====

Please provide measured shrunken log2 fold change for the entries that follow.
# Tested on: Escherichia coli TOP10
# ASSAY OVERVIEW: shrunken log2 fold change of peptide-encoding DNA abundance (4.5 h post-induction vs induction); higher = less antimicrobial activity (less host growth inhibition)
# CONDITIONS USED: time post-induction: 4.5 h; library: site-saturation at positions 5, 18, 19, 20

Worked cases, shrunken log2 fold change given:
RRIRSRPPRLPRPRPRPAHLPRP : 0.27
RRIRTRPPRLPRPRPRPQKTPRP : -0.0581
RRIRQRPPRLPRPRPRPVVKPRP : -0.031
RRIRIRPPRLPRPRPRPDRRPRP : -0.274
RRIRRRPPRLPRPRPRPRNHPRP : -0.0441

State recorded shrunken log2 fold change for all listed sequences.
1. RRIRKRPPRLPRPRPRPVFDPRP
2. RRIRCRPPRLPRPRPRPALLPRP
3. RRIRARPPRLPRPRPRPKTAPRP
4. RRIRHRPPRLPRPRPRPNCDPRP
5. RRIRHRPPRLPRPRPRPINHPRP
6. RRIRDRPPRLPRPRPRPCQTPRP

Response:
1. 0.171
2. 0.292
3. 0.0481
4. -0.264
5. -0.97
6. 0.00442

State recorded shrunken log2 fold change for all listed sequences.
1. RRIRHRPPRLPRPRPRPRHGPRP
2. RRIRWRPPRLPRPRPRPCDCPRP
3. RRIRARPPRLPRPRPRPCEEPRP
4. RRIRYRPPRLPRPRPRPKQVPRP

Response:
[-0.0477, -0.291, 0.622, 0.234]

====

# System: Escherichia coli TOP10;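 further: peptides expressed intracellularly from a pBAD plasmid library in pooled LB shake-flask culture, induced with 0.3% L-arabinose, DNA abundance read by NGS, three biological replicates, DESeq2 with apeglm shrinkage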
# ASSAY OVERVIEW: shrunken log2 fold change of peptide-encoding DNA abundance (4.5 h post-induction vs induction); higher = less antimicrobial activity (less host growth inhibition)
# CONDITIONS USED: time post-induction: 4.5 h; library: site-saturation at positions 5, 18, 19, 20
READOUT TYPE: shrunken log2 fold change
Give bare numbers.

RRIRVRPPRLPRPRPRPAECPRP : -0.0646
RRIRIRPPRLPRPRPRPKLVPRP : 0.116
RRIRIRPPRLPRPRPRPDKKPRP : -0.0638
RRIRMRPPRLPRPRPRPYVIPRP : -0.125

State recorded shrunken log2 fold change for all listed sequences.
1. RRIRNRPPRLPRPRPRPTTRPRP
2. RRIRLRPPRLPRPRPRPCPVPRP
3. RRIRERPPRLPRPRPRPHFTPRP
4. RRIRKRPPRLPRPRPRPRMFPRP
5. RRIRDRPPRLPRPRPRPLPVPRP

Response:
[0.0475, -0.393, -0.246, 0.112, -0.421]

State recorded shrunken log2 fold change for all listed sequences.
1. RRIRFRPPRLPRPRPRPANRPRP
2. RRIRVRPPRLPRPRPRPNYQPRP
3. RRIRVRPPRLPRPRPRPSSMPRP
4. RRIRRRPPRLPRPRPRPYWHPRP
5. RRIRLRPPRLPRPRPRPYRVPRP

Response:
1. -0.0406
2. -0.699
3. -0.157
4. -0.484
5. -0.00141
